Provenance of the data: paper PMC3514014

Molecular target: recombinant DPAP1 (rDPAP1) (Plasmodium falciparum)
Sequence (Q8IIJ9 28-209 limits assumed): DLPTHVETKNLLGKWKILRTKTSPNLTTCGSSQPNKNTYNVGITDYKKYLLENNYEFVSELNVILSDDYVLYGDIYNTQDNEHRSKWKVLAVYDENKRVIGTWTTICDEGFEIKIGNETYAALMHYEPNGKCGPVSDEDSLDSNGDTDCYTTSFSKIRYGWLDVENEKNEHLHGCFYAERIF
Sequence (Q8IIJ9 370-599 limits assumed): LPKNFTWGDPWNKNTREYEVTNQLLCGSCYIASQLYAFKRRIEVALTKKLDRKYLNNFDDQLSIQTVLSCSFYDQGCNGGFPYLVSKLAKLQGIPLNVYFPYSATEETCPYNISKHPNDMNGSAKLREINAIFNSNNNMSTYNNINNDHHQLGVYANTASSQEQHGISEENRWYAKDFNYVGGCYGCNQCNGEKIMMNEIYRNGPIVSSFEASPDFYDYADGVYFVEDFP
Sequence (Q8IIJ9 600-700 limits assumed): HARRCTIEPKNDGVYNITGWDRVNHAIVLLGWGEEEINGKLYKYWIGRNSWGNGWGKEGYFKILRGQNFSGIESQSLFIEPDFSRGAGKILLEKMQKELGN
Assay: Inhibition of recombinant DPAP1
Type: biochemical
Details: rDPAP1; inhibition of hydrolysis of Pro-Arg-AMC; Dixon analysis
Where a SMILES comes first, the peptide text is derived from it. The star is where a group is joined. ACC = NC(=O)Cc1cc(=O)oc2cc(N*)ccc12
result-type: Ki (nM)
Numbers only, in nM.

Record N=C(N)NCCC[C@H](NC(=O)[C@@H](N)Cc1ccccc1)C(=O)Nc1ccc2c(CC(N)=O)cc(=O)oc2c1 [Phe-Arg-ACC] (H-Phe-Arg-{ACC}) . Reported Ki: 2200
